Source listed as patent US6914045B2.

Consider the following compounds and their measured MIC Enterococcus faecalis (GC 4554) readings.
System: Enterococcus sp.
EXPERIMENT_DESCRIPTION: in vitro antibacterial evaluation, MIC by broth dilution
Type: cell-based
RUN_CONDITIONS: broth dilution, inoculum 5×10^5 CFU/mL, 18 hours at 35° C.; strain GC 4554
API: value field is a number in µg/mL; no unit string.

Consider the reported MIC Enterococcus faecalis (GC 4554) for these compounds:
COc1ccc(COCC2OC(OC3C(CO)OC(Oc4ccc(CC5NC(=O)C(C(C)c6ccccc6)NC(=O)CNC(=O)C(CO)NC(=O)C(C(O)C6CNC(=N)N6C6OC(CO)C(O)C(O)C6O)NC(=O)C(C(O)C6CNC(=N)N6)NC5=O)cc4)C(O)C3O)C(O)C(O)C2O)cc1 (stereo not shown) [Example 232] | 32
CC(C)=CCOc1cccc(C2OCC3OC(OC4C(CO)OC(Oc5ccc(CC6NC(=O)C(C(C)c7ccccc7)NC(=O)CNC(=O)C(CO)NC(=O)C(C(O)C7CNC(=N)N7C7OC(CO)C(O)C(O)C7O)NC(=O)C(C(O)C7CNC(=N)N7)NC6=O)cc5)C(O)C4O)C(O)C(O)C3O2)c1 (stereo not shown) [Example 165] | 32
N=C1NCC(C(O)C2NC(=O)C(Cc3ccc(OC4OC(CO)C(OC5OC6COC7(OC6C(O)C5O)C5CC6CC(C5)CC7C6)C(O)C4O)cc3)NC(=O)C(Cc3ccccc3)NC(=O)CNC(=O)C(CO)NC(=O)C(C(O)C3CNC(=N)N3C3OC(CO)C(O)C(O)C3O)NC2=O)N1 (stereo not shown) [Example 220] | 2

# next compound below
Input: What value of measured MIC Enterococcus faecalis (GC 4554) is listed for CC(c1ccccc1)C1NC(=O)CNC(=O)C(CO)NC(=O)C(C(O)C2CNC(=N)N2C2OC(CO)C(O)C(O)C2O)NC(=O)C(C(O)C2CNC(=N)N2)NC(=O)C(Cc2ccc(OC3OC(CO)C(OC4OC5COC6(CCCCC6(C)C)OC5C(O)C4O)C(O)C3O)cc2)NC1=O (stereo not shown) [Example 205] ?
Output: 4
